Experimental target: CDK2/Cyclin E complex (UniProt P24941 1-298; P24864 1-410)
Protocol summary: cell-based or functional assay
Ends that are not written are not given here.
Lab note - cut at 7 µM for IC50, cyclin E/CDK2 kinase, GST-pRb: 1 if strictly below, -1 if not.

# Binder, Classification
records = [
    ("DFYHSKRRLAFS-NH2 [DFYHSKRRLAFS-NH2]", -1),
    ("FYHSKRRL-NH2 [FYHSKRRL-NH2]", -1),
    ("HSKRRLIF-NH2 [p21 (152-159) HSKRRLIF-NH2]", 1),
]

query: # check: IC50, cyclin E/CDK2 kinase, GST-pRb < 7 µM for DAYHSKRRLIFS-NH2 [DAYHSKRRLIFS-NH2]
result: 1

query: Queued: DFYASKRRLIFS-NH2 [DFYASKRRLIFS-NH2]
result: 1

query: Queued: FYHSKRRLIFSK-NH2 [FYHSKRRLIFSK-NH2]
result: -1

query: Queued: HSKRRLIFSKRK-NH2 [HSKRRLIFSKRK-NH2]
result: -1

query: Queued: SKRRLIF-NH2 [SKRRLIF-NH2]
result: -1

query: Queued: YHSKRRLIFS-NH2 [YHSKRRLIFS-NH2]
result: -1
